Entries annotated with measured Plant response rating, Wheat
Test system: wheat (Triticum aestivum)
Assay: Test A postemergence, wheat
Type: in vivo
Conditions: Postemergence, 125 g ai/ha; visual injury approx. 10 days; 0 to 100 scale (0 no effect, 100 complete control)
Number only, please.

Some compounds with known Plant response rating, Wheat results, for comparison:
> print(dat)
                                   compound  result
1  Cc1cc(Cl)c(NS(=O)(=O)C(F)(F)F)cc1C(=O)N(C)C      50
2  Cc1cc(C)c(-c2cc(C(C)C)nn(C)c2=O)cc1NS(=O)(=O)C(F)(F)F      50
3  CCn1c(=O)c(-c2cc(NS(=O)(=O)C(F)(F)F)c(C)cc2C)cn(C)c1=O      80
4  CCn1nccc(-c2cc(NS(=O)(=O)C(F)(F)F)c(C)cc2F)c1=O      20
5  Cc1cc(C)c(N(S(=O)(=O)C(F)(F)F)S(=O)(=O)C(F)(F)F)cc1C(=O)N1CCCC(F)C1 (centres unmarked)      40

Entry Cc1cc(C)c(N(S(=O)(=O)C(F)(F)F)S(=O)(=O)C(F)(F)F)cc1-c1cn(C)c(=O)n(C)c1=O has what Plant response rating, Wheat?
70

How about this compound: COc1cc(C)c(NS(=O)(=O)C(F)(F)F)cc1-c1ccnn(C)c1=O
40

Ok, now Cc1cc(C)c(N(S(=O)(=O)C(F)(F)F)S(=O)(=O)C(F)(F)F)cc1-c1cc(Cl)nn(C)c1=O
60

====

In this section we review reported Plant response rating, Corn values for a set of molecules.
Test system: corn (Zea mays)
Assay: Test A postemergence, corn
Format: in vivo
Conditions: Postemergence, 31 g ai/ha; visual injury on 0 to 100 scale (0 no effect, 100 complete control), approx. 10 days
Lab note: jot down the number only; don't add units.

> print(dat)
                                   molecule                endpoint.name  result
1  CCCCC(=O)OCN(c1cc(C2=NOC3(CCCC3)C2)c(C)cc1C)S(=O)(=O)C(F)(F)F  Plant response rating, Corn       0
2  Cc1cc(C)c(C2=NOC3(C2)CC(C)CC(C)C3)cc1NS(=O)(=O)C(F)(F)F (single isomer, unassigned) [Compound 168]  Plant response rating, Corn       0
3  Cc1cc(C)c(N(COC(=O)C2CCCCC2)S(=O)(=O)C(F)(F)F)cc1C1=NOC2(CCCC2)C1  Plant response rating, Corn       0

Then this molecule:
Recorded Plant response rating, Corn for Cc1cc(C)c(C(=O)N2CCCC(F)C2)cc1NS(=O)(=O)C(F)(F)F (stereo not shown) , please?
50

====

Tested on: kochia (Bassia scoparia)
Assay: Test A postemergence, kochia
Assay type: in vivo
Conditions: Postemergence, 125 g ai/ha; visual injury approx. 10 days; 0 to 100 scale (0 no effect, 100 complete control)
Source text: Seeds of plant species selected from barnyardgrass (Echinochloa crus-galli), kochia (Bassia scoparia), ragweed (common ragweed, Ambrosia artemisiifolia), Ryegrass, Italian (Italian ryegrass, Lolium multiflorum), Foxtail, Giant (giant foxtail, Setaria faberi), and pigweed (Amaranthus retroflexus) were planted into a blend of loam soil and sand and treated preemergence with a directed soil spray using test chemicals formulated in a non-phytotoxic solvent mixture which included a surfactant. […]
Consider the following compounds and their measured Plant response rating, Kochia readings.

> print(dat)
                                   compound                  endpoint.name  result
1  Cc1cc(Cl)c(NS(=O)(=O)C(F)(F)F)cc1-c1cn(C)c(=O)n(C)c1=O  Plant response rating, Kochia      30
2  Cc1ccc(-c2ccnn(C)c2=O)cc1NS(=O)(=O)C(F)(F)F  Plant response rating, Kochia      50
3  Cc1cc(F)c(-c2ccnn(C)c2=O)cc1NS(=O)(=O)C(F)(F)F  Plant response rating, Kochia      70
4  Cc1cc(C)c(N(S(C)(=O)=O)S(=O)(=O)C(F)(F)F)cc1-c1ccnn(C)c1=O  Plant response rating, Kochia      10
5  Cc1cc(C)c(C(=O)N2CC(C)OC(C)C2)cc1NS(=O)(=O)C(F)(F)F (stereo not shown)  Plant response rating, Kochia      10
6  CCN(CC)C(=O)c1cc(NS(=O)(=O)C(F)(F)F)c(Cl)cc1C  Plant response rating, Kochia      10
7  CCn1nc(Cl)cc(-c2cc(NS(=O)(=O)C(F)(F)F)c(C)cc2C)c1=O  Plant response rating, Kochia      10
8  Cc1cc(C)c(-n2nccc(Cl)c2=O)cc1NS(=O)(=O)C(F)(F)F  Plant response rating, Kochia       0

Quick check: Plant response rating, Kochia of Cc1cc(Cl)c(N(S(=O)(=O)C(F)(F)F)S(=O)(=O)C(F)(F)F)cc1-c1cn(C)c(=O)n(C)c1=O ?
60

For COC1CCCN(C(=O)c2cc(N(S(=O)(=O)C(F)(F)F)S(=O)(=O)C(F)(F)F)c(C)cc2C)C1 (stereo not shown) then?
20

Try this compound next: CSc1cc(-c2cc(NS(=O)(=O)C(F)(F)F)c(C)cc2C)c(=O)n(C)n1
20

Can you check COCC1(COC)CC(c2cc(NS(=O)(=O)C(F)(F)F)c(C)cc2C)=NO1 next?
30

Ok, now Cc1cc(C)c(N(S(=O)(=O)C(F)(F)F)S(=O)(=O)C(F)(F)F)cc1-c1cn(C)c(=O)n(C)c1=O
20

Would you mind doing Cc1cc(C)c(N(S(=O)(=O)C(F)(F)F)S(=O)(=O)C(F)(F)F)cc1-c1cc(Cl)nn(C)c1=O as well?
30

Another compound: Cc1cc(C)c(C(=O)N(C)CC2CC2)cc1NS(=O)(=O)C(F)(F)F
20

Subsequent entry: Cc1cc(C)c(-c2cc(C(C)C)nn(C)c2=O)cc1NS(=O)(=O)C(F)(F)F
0

====

Test system: blackgrass (Alopecurus myosuroides)
Assay: Test A postemergence, blackgrass
Type: in vivo
Conditions: Postemergence, 500 g ai/ha; visual injury vs untreated controls after approx. 10 days; 0 to 100 scale (0 no effect, 100 complete control)
ENDPOINT_NAME: Blackgrass plant response rating
Just the number, please.

Illustrative cases are given below, each with its answer.
> print(dat)
                                   molecule                     endpoint.name  result
1  Cc1cc(C)c(N(S(=O)(=O)C(F)(F)F)S(=O)(=O)C(F)(F)F)cc1C1=NOC2(CCC3(CC2)OCCO3)C1  Blackgrass plant response rating      20
2  Cc1cc(C)c(C2=NOC3(CCC(F)(F)CC3)C2)cc1NS(=O)(=O)C(F)(F)F  Blackgrass plant response rating      40
3  Cc1cc(C)c(C2=NOC3(C2)CC(C)OC(C)C3)cc1NS(=O)(=O)C(F)(F)F (single isomer, unassigned)  Blackgrass plant response rating      60
4  Cc1cc(F)c(-c2ccnn(C)c2=O)cc1NS(=O)(=O)C(F)(F)F  Blackgrass plant response rating      40
5  Cc1cc(F)c(C(=O)N2CCCCC2)cc1NS(=O)(=O)C(F)(F)F  Blackgrass plant response rating       0
6  Cc1cc(Cl)c(C2=NOC(C)(C)C2)cc1N(S(=O)(=O)C(F)(F)F)S(=O)(=O)C(F)(F)F  Blackgrass plant response rating      20

So what does the record say about Blackgrass plant response rating for COC(=O)N(c1cc(-c2ccnn(C)c2=O)c(C)cc1C)S(=O)(=O)C(F)(F)F ?
0

What would you report for Cc1cc(C)c(N(S(C)(=O)=O)S(=O)(=O)C(F)(F)F)cc1-c1ccnn(C)c1=O ?
80

Repeat with COc1ccnn(-c2cc(NS(=O)(=O)C(F)(F)F)c(C)cc2C)c1=O
70

Would you mind doing Cc1cc(Cl)c(NS(=O)(=O)C(F)(F)F)cc1C(=O)N1CCC(Cl)CC1 as well?
40

====

# Corn plant response rating annotations
Test system: corn (Zea mays)
Test: Test A postemergence, corn
Format: in vivo
Details: Postemergence, 500 g ai/ha; visual injury vs untreated controls after approx. 10 days; 0 to 100 scale (0 no effect, 100 complete control)
I only need the number, thanks.

> print(dat)
                                   compound               endpoint.name  result
1  Cc1cc(C)c(-c2ccnn(CC(F)(F)F)c2=O)cc1NS(=O)(=O)C(F)(F)F  Corn plant response rating      80
2  Cc1cc(Cl)c(NS(=O)(=O)C(F)(F)F)cc1C(=O)N1CCC(Cl)CC1  Corn plant response rating      60
3  Cc1cc(C)c(-c2cc(Cl)nn(C)c2=O)cc1NS(=O)(=O)C(F)(F)F  Corn plant response rating      50
4  C#CCN(C)C(=O)c1cc(NS(=O)(=O)C(F)(F)F)c(C)cc1C  Corn plant response rating      80
5  CCCn1nccc(-c2cc(NS(=O)(=O)C(F)(F)F)c(C)cc2C)c1=O  Corn plant response rating      50
6  Cc1cc(Cl)c(NS(=O)(=O)C(F)(F)F)cc1C1=NOC(C)(C)C1  Corn plant response rating      60
7  COC1CCCN(C(=O)c2cc(NS(=O)(=O)C(F)(F)F)c(Cl)cc2C)C1 (centres unmarked)  Corn plant response rating      20

Name the recorded Corn plant response rating for CC(=O)OCN(c1cc(C2=NO[C@@H]3CCC[C@H]23)c(C)cc1C)S(=O)(=O)C(F)(F)F (relative stereo) .
30
